- Tested on: TO-3-N3 (biotin conjugate)
- Assay Summary: pull-down binding Z-score (relative to library population); higher = stronger binding
- Applied Conditions: RNA library: Library-2
Our labelling divides records by pull-down binding Z-score into ranges: bucket 1: < -0.3; bucket 2: ≥ -0.3 and < -0.2; bucket 3: ≥ -0.2

Worked cases, answers included:
1) AUAGUUUUAGGGUCACACCCACCACUGGGAGAUAACUAU [hsa-let-7a-1]
bucket 3
2) UACAUAGUUCAUGCUGAGGCCGGGAUUUCAUGCAGAAAACUGGUUGCAAAAGGUGCUGAAG [hsa-mir-6085]
bucket 3
3) UGUCAUUACUUUCAAUGGCA [hsa-mir-548h-2]
bucket 1
4) GUACUUAAUGAGAAGUGC [SHAPE_invivo_SARS-CoV-2_Motif_56]
bucket 2
5) CACUUAUCUUAGCCUACUGUAAUAAGACAGUAGGUGAGUUAGGUG
bucket 1
6) GCAGUAAGUCUGAUACUUACCUG [U1snRNP5ss-9]
bucket 3

Problem: Which class does CUGUAUGUCCUAACAGUGCUUGUAG [hsa-mir-4794] fall in?
Result: bucket 2

Problem: Which class does GAUGGCUUUCCUUGAGGAAUCCCAUC [IAV_invivo_PB1_2_Motif_6+IAV_invivo_PB1_2_Motif_6] fall in?
Result: bucket 1

Problem: Which class does ACAUGAAAAUAAAAUGUAAAUUAUUUUAUUUCUAUCA [hsa-mir-3671] fall in?
Result: bucket 3
